In this section, each of the molecules is paired with its reported MIC E. coli 1346 (E).
system: E. coli 1346; assay: Antibacterial activity of the products per se, serial dilution method in liquid medium (Test E); assay type: cell-based; conditions: Table 4; test E, product per se
Where a name gives a salt, the structure may show the parent alone.
Number only, in µg/mL; omit the unit.

The cases that follow already have their MIC E. coli 1346 (E) on record.
{"molecule": "CC(=O)N1C[C@H]2CC(Sc3ccncc3)=C(C(=O)O)N3C(=O)[C@@H]1[C@@H]23 [Example 3(ah), sodium salt]", "quantity unit": "µg/mL", "MIC E. coli 1346 (E)": 8}
{"molecule": "CS(=O)(=O)NCC1=C(C(=O)O)N2C(=O)[C@@H]3[C@H]2[C@H](C1)CN3C(=O)C(F)(F)F [88(b), sodium salt]", "quantity unit": "µg/mL", "MIC E. coli 1346 (E)": 4}

# MIC E. coli 1346 (E) lookup, item CC(=O)N1C[C@H]2CC(CSc3ncccn3)=C(C(=O)O)N3C(=O)[C@@H]1[C@@H]23 [72(a), sodium salt] 2

# MIC E. coli 1346 (E) lookup, item O=C(NCc1ccc(O)cc1)OCC1=C(C(=O)O)N2C(=O)[C@H]3NC[C@@H](C1)[C@H]32 2

# MIC E. coli 1346 (E) lookup, item CC(=O)OCC1=C(C(=O)O)N2C(=O)[C@@H]3[C@H]2[C@H](C1)CN3C(=O)NCC(=O)OCc1ccccc1 [25(b), sodium salt] 4

# MIC E. coli 1346 (E) lookup, item CCOC(=O)N1C[C@H]2CC(CSc3nnnn3C)=C(C(=O)O)N3C(=O)[C@@H]1[C@@H]23 16

# MIC E. coli 1346 (E) lookup, item Cc1nnc(SCC2=C(C(=O)O)N3C(=O)[C@@H]4[C@H]3[C@H](C2)CN4C(=O)CSc2ccncc2)s1 [65(c), sodium salt] 2

# MIC E. coli 1346 (E) lookup, item C=CCN1C[C@H]2OC(CSc3nnnn3C)=C(C(=O)O)N3C(=O)[C@@H]1[C@@H]23 [Example 30, sodium salt] 8

# MIC E. coli 1346 (E) lookup, item NC(=O)CNC(=O)OCC1=C(C(=O)O)N2C(=O)[C@H]3NC[C@@H](C1)[C@H]32 4

# MIC E. coli 1346 (E) lookup, item C=CC1=C(C(=O)O)N2C(=O)[C@@H]3[C@H]2[C@H](C1)CN3C(=O)Nc1ccc(O)cc1 [46(a), sodium salt] 64
